- Method notes: Volume of distribution at steady state in Sprague-Dawley rat at 2 mg/kg, iv
- Format: ADME, organism-based
- Set-up: dose 2 mg/kg, route intravenous
- Condition: in vivo, read-out: Vdss
Endpoint label: Vd (L/kg)
// note: answer is a bare numeric in L/kg

Respond only with Vd recorded for `CC1CCN(c2nc3c(c(Nc4cc(C5CC5)[nH]n4)n2)CCC3)CC1`
4.37

----------
- Method notes: Oral bioavailability in Sprague-Dawley rat at 10 mg/kg
- Type: ADME, organism-based
- Condition: in vivo
Endpoint label: bioavailability
Express your answer as a number followed by its unit.

Respond only with bioavailability recorded for `CC1CCN(c2nc3c(c(Nc4cc(C5CC5)[nH]n4)n2)CCC3)CC1`
11.3%

----------
- Tested on: MCF7
- Method notes: Growth inhibition of human MCF7 cells after 48 hrs by propidium iodide staining-based fluorescence assay
- Type: functional, cell-based
- Condition: MCF7, 48 h
Endpoint label: pIC50
// pIC50 here means minus log10 of the molar concentration (mol/L)

Respond only with pIC50 recorded for `CC1CCN(c2nc3c(c(Nc4cc(C5CC5)[nH]n4)n2)CCC3)CC1`
5.78

----------
- Assay system: UniProt:P08069
- Method notes: Inhibition of IGF1R (unknown origin) using poly-G1 as substrate incubated for 10 mins prior to substrate addition measured after 1 hr by time-resolved fluorescence assay
- Condition: read-out: IC50
Would you mind telling me the reported IC50 of each entry?
// note: answer is a bare numeric in nM

Respond only with IC50 recorded for `Cc1ccc(CNc2nc3c(c(Nc4cc(C5CC5)[nH]n4)n2)CCC3)cc1`
149

Respond only with IC50 recorded for CCOC(=O)C1CCCN(c2nc3c(c(Nc4cc(C)[nH]n4)n2)CCC3)C1 (stereo not given)
970

Respond only with IC50 recorded for `CCOC(=O)C1CCN(c2nc3c(c(Nc4cc(C5CC5)[nH]n4)n2)CCC3)CC1`
35

Respond only with IC50 recorded for `CC(C)(C)c1cc(Nc2nc(N3CCCCC3)nc3c2CCC3)n[nH]1`
251

----------
- Assay system: Insulin-like growth factor 1 receptor (Homo sapiens)
- Sequence (P08069 31-736 limits assumed): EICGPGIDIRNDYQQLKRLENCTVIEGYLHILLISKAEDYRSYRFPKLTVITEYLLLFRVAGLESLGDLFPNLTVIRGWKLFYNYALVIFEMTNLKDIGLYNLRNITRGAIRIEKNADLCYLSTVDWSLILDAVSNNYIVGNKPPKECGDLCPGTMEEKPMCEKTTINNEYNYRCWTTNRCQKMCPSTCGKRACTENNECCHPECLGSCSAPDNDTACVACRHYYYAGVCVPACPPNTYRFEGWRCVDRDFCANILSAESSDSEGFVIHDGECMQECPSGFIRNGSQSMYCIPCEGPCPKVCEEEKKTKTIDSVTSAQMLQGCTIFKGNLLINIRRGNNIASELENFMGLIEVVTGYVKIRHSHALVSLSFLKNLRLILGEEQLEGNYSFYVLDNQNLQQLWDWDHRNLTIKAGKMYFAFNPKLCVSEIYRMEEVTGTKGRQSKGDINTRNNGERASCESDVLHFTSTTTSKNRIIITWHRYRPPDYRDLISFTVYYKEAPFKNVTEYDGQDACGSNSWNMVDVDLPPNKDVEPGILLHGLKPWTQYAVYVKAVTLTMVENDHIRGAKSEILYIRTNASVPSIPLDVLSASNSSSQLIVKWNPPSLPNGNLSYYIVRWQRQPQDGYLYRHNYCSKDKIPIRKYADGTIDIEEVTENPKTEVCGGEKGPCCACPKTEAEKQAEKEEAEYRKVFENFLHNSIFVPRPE
- Sequence (P08069 741-1367 limits assumed): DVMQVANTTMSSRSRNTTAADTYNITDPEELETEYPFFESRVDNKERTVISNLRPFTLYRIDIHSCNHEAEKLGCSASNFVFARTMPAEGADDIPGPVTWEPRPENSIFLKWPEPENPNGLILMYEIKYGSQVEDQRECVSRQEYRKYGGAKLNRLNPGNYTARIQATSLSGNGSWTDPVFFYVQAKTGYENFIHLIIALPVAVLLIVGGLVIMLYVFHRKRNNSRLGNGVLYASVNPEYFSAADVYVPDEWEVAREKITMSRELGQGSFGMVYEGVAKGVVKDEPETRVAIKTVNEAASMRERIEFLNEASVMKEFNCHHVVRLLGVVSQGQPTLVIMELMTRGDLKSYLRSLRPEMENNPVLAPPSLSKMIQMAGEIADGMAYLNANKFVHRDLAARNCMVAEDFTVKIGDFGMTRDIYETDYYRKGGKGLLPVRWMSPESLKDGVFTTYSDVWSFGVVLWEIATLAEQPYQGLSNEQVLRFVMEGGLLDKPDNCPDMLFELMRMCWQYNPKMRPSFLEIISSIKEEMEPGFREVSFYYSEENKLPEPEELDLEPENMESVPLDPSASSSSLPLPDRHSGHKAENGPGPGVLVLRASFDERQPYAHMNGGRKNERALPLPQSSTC
- Method notes: Inhibition of IGF1R (unknown origin) using poly-G1 as substrate incubated for 10 mins prior to substrate addition measured after 1 hr by time-resolved fluorescence assay
- Condition: read-out: IC50
Endpoint label: IC50 (nM)
// note: answer is a bare numeric in nM

Respond only with IC50 recorded for `Cc1cc(Nc2nc(N3CCCCCC3)nc3c2CCC3)n[nH]1`
2000

Respond only with IC50 recorded for `CC1CCN(c2nc3c(c(Nc4cc(C(C)(C)C)[nH]n4)n2)CCC3)CC1`
300

Respond only with IC50 recorded for CC1CCN(c2nc(Nc3cc(C4CC4)[nH]n3)c3c(n2)C2CCC3C2)CC1 (centres undefined)
1190

Respond only with IC50 recorded for `N#CC1CCN(c2nc3c(c(Nc4cc(C5CC5)[nH]n4)n2)CCC3)CC1`
124

Respond only with IC50 recorded for `CC1(C)CCN(c2nc3c(c(Nc4cc(C5CC5)[nH]n4)n2)CCC3)CC1`
203

Respond only with IC50 recorded for `Cc1cc(Nc2nc(N3CCCCC3)nc3c2CCC3)n[nH]1`
442

Respond only with IC50 recorded for CCN(CC)C(=O)C1CCCN(c2nc3c(c(Nc4cc(C5CC5)[nH]n4)n2)CCC3)C1 (centres undefined)
184

Respond only with IC50 recorded for `CC1CCN(c2nc(Nc3cc(C4CC4)[nH]n3)c3c(n2)C(F)(F)CC3)CC1`
786

Respond only with IC50 recorded for c1c(Nc2nc(N3CC4CCC3C4)nc3c2CCC3)n[nH]c1C1CC1 (centres undefined)
41

Respond only with IC50 recorded for `c1c(Nc2nc(N3CCCCC3)nc3c2CCC3)n[nH]c1C1CC1`
32

Respond only with IC50 recorded for `c1c(Nc2nc(N3CCCCCCC3)nc3c2CCC3)n[nH]c1C1CC1`
58

Respond only with IC50 recorded for `c1ccc(CNc2nc3c(c(Nc4cc(C5CC5)[nH]n4)n2)CCC3)cc1`
267

Respond only with IC50 recorded for `CC1CCN(c2nc(Nc3cc(C4CC4)[nH]n3)c3c(n2)C(C)(C)CC3)CC1`
1500

Respond only with IC50 recorded for `CC1CCN(c2nc3c(c(Nc4cc(C5CC5)[nH]n4)n2)CCC3)CC1`
20

Respond only with IC50 recorded for OCC1CCCN(c2nc3c(c(Nc4cc(C5CC5)[nH]n4)n2)CCC3)C1 (centres undefined)
90

Respond only with IC50 recorded for `c1ccc(-c2nc3c(c(Nc4cc(C5CC5)[nH]n4)n2)CCC3)cc1`
97

Respond only with IC50 recorded for CCOC(=O)C1CCCN(c2nc3c(c(Nc4cc(C(C)(C)C)[nH]n4)n2)CCC3)C1 (centres undefined)
108

Respond only with IC50 recorded for `CC(C)(C)c1cc(Nc2nc(N3CCCCCC3)nc3c2CCC3)n[nH]1`
568

Respond only with IC50 recorded for `c1c(Nc2nc(N3CCCCCC3)nc3c2CCC3)n[nH]c1C1CC1`
10

Respond only with IC50 recorded for `CC1CCN(c2nc(Nc3cc(C4CC4)[nH]n3)c3c(n2)C2(CCCC2)CC3)CC1`
2800

----------
- Method notes: Half life in Sprague-Dawley rat at 10 mg/kg, po
- Format: ADME, organism-based
- Design: dose 10 mg/kg, route oral
- Condition: in vivo
Endpoint label: half-life

Respond only with half-life recorded for `CC1CCN(c2nc3c(c(Nc4cc(C5CC5)[nH]n4)n2)CCC3)CC1`
52.2 min

----------
- Method notes: Initial concentration in Sprague-Dawley rat at 2 mg/kg, iv
- Assay type: ADME, organism-based
- Parameters: dose 2 mg/kg, route intravenous
- Condition: in vivo
Endpoint label: C0 (ng/mL)
// note: answer is a bare numeric in ng/mL

Respond only with C0 recorded for `CC1CCN(c2nc3c(c(Nc4cc(C5CC5)[nH]n4)n2)CCC3)CC1`
1050

----------
- Method notes: Half life in Sprague-Dawley rat at 2 mg/kg, iv
- Format: ADME, organism-based
- Parameters: dose 2 mg/kg, route intravenous
- Condition: in vivo
Endpoint label: half-life (min)
// note: answer is a bare numeric in min

Respond only with half-life recorded for `CC1CCN(c2nc3c(c(Nc4cc(C5CC5)[nH]n4)n2)CCC3)CC1`
51
